# targetEntity: 5-lipoxygenase (Homo sapiens)
# Construct: Human polymorphonuclear leukocytes (neutrophils) were obtained from normal healthy volunteers; endogenous in cells; host or cells: human blood neutrophils from healthy volunteers
# Sequence (P09917 whole entry): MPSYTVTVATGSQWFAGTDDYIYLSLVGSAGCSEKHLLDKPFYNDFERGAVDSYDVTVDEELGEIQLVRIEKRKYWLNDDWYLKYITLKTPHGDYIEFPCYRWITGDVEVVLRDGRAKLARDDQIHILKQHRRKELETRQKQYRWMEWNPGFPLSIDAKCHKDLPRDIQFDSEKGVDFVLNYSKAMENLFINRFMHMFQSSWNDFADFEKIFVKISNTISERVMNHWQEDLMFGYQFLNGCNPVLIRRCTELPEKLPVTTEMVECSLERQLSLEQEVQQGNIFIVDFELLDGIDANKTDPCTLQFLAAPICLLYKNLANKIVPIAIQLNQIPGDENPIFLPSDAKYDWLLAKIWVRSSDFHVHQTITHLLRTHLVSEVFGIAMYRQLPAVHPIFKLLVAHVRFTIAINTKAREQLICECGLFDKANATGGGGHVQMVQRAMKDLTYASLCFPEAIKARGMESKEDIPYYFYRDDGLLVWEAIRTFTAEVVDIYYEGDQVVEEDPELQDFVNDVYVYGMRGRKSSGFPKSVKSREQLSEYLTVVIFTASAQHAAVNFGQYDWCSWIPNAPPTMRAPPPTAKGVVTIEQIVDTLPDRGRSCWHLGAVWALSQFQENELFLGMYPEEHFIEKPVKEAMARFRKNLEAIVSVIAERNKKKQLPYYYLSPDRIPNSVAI
# experimentalProtocol: 5-Lipoxygenase assay with human neutrophils
# Type: cell-based
# appliedConditions: 5 min; Human PMN, dose 15 μm (μM); read-out: % Inhibition 5-HETE
# Procedure: Human polymorphonuclear leukocytes (neutrophils) were obtained from normal healthy volunteers by venipuncture and collected with heparin anticoagulant. Neutrophils were isolated by Dextran/Ficol sedimentation as described (Billah et al., J. Biol. Chem. 260, 6899-6906 (1985)). In brief, 30 ml of blood was mixed with 5 ml of dextran (Sigma) solution and kept at 37° C. for 30 min. […]
Rule: inhibition at 15 µM of 50% or more gives Met; anything lower gives Not met.

A selection of reference data follows.
COc1cc(OC)c2c(c1)C(C)(C)CC(c1ccccc1)C2=O (centres unmarked) [drawing 102 [A=C6H5; B=H]]; Met
COc1ccc(C2=CC(=O)c3c(OC)cccc3C2(C)C)cc1OC; Not met
COc1cc(O)c2c(c1)C(C)(C)C(c1ccc(OC)c(OC)c1)CC2=NO (centres unmarked); Not met
COc1cc(OC)c2c(c1)C(C)(C)C(c1ccc(OC)c(OC)c1)CC(C)(C)C2=O (centres unmarked) [drawing 90 [X=O; W=CH3; J=CH3]]; Met

Let us examine a further case.
Does the reported inhibition at 15 µM for COc1cc(OC)c2c(c1)C(C)(C)C(c1ccc(OC)c(OC)c1)CC2=NNC(C)=O (centres unmarked) fall at or above the 50% mark? Not met
